Hello, the source for this data is the supplement of paper PMC10567573, in case you need it.

B1: TRAF3IP2 (parent)
chain: FMEKRNQWLVSQLSAASPDTGHDS

Variants of: B1
Assay: protein stability index of a GFP-peptide fusion (GPS, HEK-293T) (PSI 1-6); higher = more stable;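 further: lentivirally expressed fusions sorted by FACS into six bins by GFP to DsRed ratio, PSI derived from sequencing read proportions per bin multiplied by bin number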
Conditions: c terminus: a fixed tail appended
Please enter class 1 where protein stability index is greater than or equal to 3, and class 0 where it is lower.

Recorded results for 3 variants are shown here.
mutant_designation=S24Q class="class 0"
mutant_designation=L13Y class="class 0"
mutant_designation=A15S class="class 0"

Given the entry "V10T" , answer whether its protein stability index meets or surpasses 3.
class 1

Record "K4I" ; criterion: protein stability index no lower than 3. Met?
class 0

Kindly determine if protein stability index recorded for "M2P" is above or exactly 3.
class 0

Check this variant for protein stability index at or above 3: "F1A"
class 1
